Answer each item with its documented GI50.
# System: KM12
# ASSAY DETAILS: NCI tumour cell line growth inhibition, 48 h
The source made the active and inactive calls. Rule as the data show it: active = GI50 up to about 1.1 µM and inactive = higher.

IN: Item COC(=O)CCCCC/C(=C\C(=O)C(Cl)(Cl)Cl)OC has what recorded GI50?
OUT: 26.4 µM (inactive)

IN: Proceed to [N-]=[N+]=Nc1c(-c2ccccc2)c(=O)n(-c2ccccc2)c2ccccc12
OUT: 67.6 µM (inactive)

IN: Proceed to CC1CN1c1c(C(=O)/C=C/c2ccc(F)cc2)c(-c2ccccc2)nn(C)c1=O (stereo not drawn)
OUT: 15.7 µM (inactive)

For every listed record, write down its GI50.
1. COC(=O)[C@@]12C3=NO[C@]1(C(=O)OC)C(O[Si](C)(C)C(C)(C)C)[C@H]1OC(C)(C)O[C@H]1[C@@H]2C(OCc1ccccc1)CC3 (stereo partly drawn)
2. COc1ccc(-c2nc(N)n(C)c2SSc2c(-c3ccc(OC)cc3)nc(N)n2C)cc1
3. COC1=C2CC(C)CC(OC)[C@@H](OC(=O)CCN)[C@H](C)/C=C(\C)C(OC(N)=O)C(OC)/C=C\C=C(/C)C(=O)NC(=CC1=O)C2=O (stereo partly drawn)
4. CSc1nnnc2ccccc12
5. CC(=O)NC1C(OCc2ccccc2)OC(COC(=O)CCCCCNc2ccc([N+](=O)[O-])c3[nH]c4ccc(O)cc4c(=O)c23)C(O)C1OC(C)C(=O)N[C@@H](C)C(=O)N[C@H](CCC(=O)OCc1ccccc1)C(N)=O (stereo partly drawn)

OUT:
["28.3 µM (inactive)", "12.9 µM (inactive)", "2.64 µM (inactive)", "> 100 µM (inactive)", "1.39 µM (inactive)"]

----------
# Test system: MOLT-4
# ASSAY DETAILS: NCI tumour cell line growth inhibition, 48 h
Calls of active or inactive are those of the source. No stated cut-off is given here; in the data, active = GI50 up to about 1.1 µM and inactive = higher.
Pick one: active, inactive

Field: example entries. Status: answers known.
IN: Recorded test outcome, item Nc1c(-c2ccc(Br)cc2)[n+]([O-])c2ccccc2[n+]1[O-]
OUT: inactive

IN: Proceed to NC(=S)NS(=O)(=O)c1ccc(F)cc1F
OUT: inactive

IN: Proceed to CC[C@@]12N=C(N(C)C)C[C@]1(O)ON=C2C
OUT: inactive

IN: Proceed to Cc1cc(C)n(C(=O)CSc2nc3ccc(I)cc3c(=O)n2Cc2ccccc2)n1
OUT: inactive

IN: Proceed to COC(=O)C1Cc2c([nH]c3ccccc23)C(c2ccccc2O)N1 (configuration not stated)
OUT: inactive

---
IN: Recorded test outcome, item Clc1ccc(C2=CC(c3ccccc3)N3C(=N[C@H]4CCCC[C@@H]43)N2)cc1 (some centres not stated)
OUT: inactive

IN: Proceed to N#Cc1c(N)n(-c2nc3ccccc3s2)c(=O)c2cc([N+](=O)[O-])ccc12
OUT: inactive

----------
# Tested on: SR
# ASSAY DETAILS: NCI tumour cell line growth inhibition, 48 h
Active and inactive are the calls of the source. Rule as the data show it: active = GI50 up to about 1.1 µM and inactive = higher.
Pick one: yes (1) = active, no (0) = inactive

Field: example entries. Status: answers known.
IN: Recorded test outcome, item CC(=O)Oc1ccc(/C=C/C(=O)NCCOC(=O)/C=C/c2ccc(OC(C)=O)c(OC(C)=O)c2)cc1OC(C)=O
OUT: no (0)

IN: Proceed to O=C(c1ccccc1)C1CCCCN1C(=O)c1ccccc1 (centres undefined)
OUT: no (0)

IN: Proceed to CC(=O)NC1C(OCc2ccccc2)OC(COC(=O)CCCCCNc2ccc([N+](=O)[O-])c3[nH]c4ccc(O)cc4c(=O)c23)C(O)C1OC(C)C(=O)N[C@@H](C)C(=O)N[C@H](CCC(=O)OCc1ccccc1)C(N)=O (some centres undefined)
OUT: yes (1)

IN: Proceed to COC(C(=O)NCCCCNC(=O)C(OC)c1ccccc1)c1ccccc1 (centres undefined)
OUT: no (0)

IN: Proceed to Nc1cc(N)cc(Cc2ccccc2)c1
OUT: no (0)

IN: Proceed to C=C1C(=O)OC2C3C(=C)[C@@H](OC(C)=O)CC3C(C)=CC(OC(=O)C(C)(OC(C)=O)C(C)OC(C)=O)[C@@H]12 (some centres undefined)
OUT: no (0)

IN: Proceed to NCCNCCNc1ccc(NCCNCCN)c2c1C(=O)c1c(O)ccc(O)c1C2=O
OUT: no (0)

IN: Proceed to Cc1ccc(OC(=O)N2C/C(=C\c3ccccc3)C(=O)/C(=C/c3ccccc3)C2)cc1
OUT: no (0)

Kindly review the next compound as well.
IN: Recorded test outcome, item CNc1nc(=S)[nH]c2sc3c(c12)CCCC3
OUT: no (0)

----------
Data export: GI50 values recorded with HCT-15.

IN: Item C[n+]1ccc(/C2=C3\C=CC(=N3)/C(c3cc[n+](C)cc3)=c3/cc/c([nH]3)=C(\c3cc[n+](C)cc3)C3=N/C(=C(/c4cc[n+](C)cc4)C4C=CC2N4)C=C3)cc1 has what recorded GI50?
OUT: > 100 µM

For every listed record, write down its GI50.
1. COC(=O)C1=C(C(=O)NNc2ccccc2)N(c2cccnc2Cl)C(c2ccccc2)=CC1c1ccccc1 (centres undefined)
2. CC(=O)Nc1ncc2c(n1)-c1ccccc1OC2c1ccccc1 (centres undefined)
3. COc1ccc(-c2c(C3=NCCCN3)nnn2-c2ccc([N+](=O)[O-])cc2)cc1

OUT:
1: 39.3 µM; 2: > 100 µM; 3: > 100 µM

----------
# System: Malme-3M
# ASSAY DETAILS: NCI tumour cell line growth inhibition, 48 h
Calls of active or inactive are those of the source. Cut-off read from the data, not from the text of the source: active = GI50 up to about 1.1 µM and inactive = higher.
Pick one: active, inactive

Field: example entries. Status: answers known.
IN: Recorded test outcome, item COc1ccc(-c2c(C3=NCCCN3)nnn2-c2ccc([N+](=O)[O-])cc2)cc1
OUT: inactive

IN: Proceed to CCC1CN2CCc3c([nH]c4ccccc34)[C@@](C(=O)OC)(c3cc4c(cc3OC)N(C)C3C(O)(C(=O)OC)C(C(=O)OC)C5(CC)C=CCN6CCC43C65)C[C@@H](C2)[C@@H]1C(C)(C)C (stereo not given in full)
OUT: active

IN: Proceed to C/N=c1\ss/c(=N\C(=S)N(C)C)n1C1CCCCC1
OUT: inactive

IN: Proceed to CCN(CC)CCCC(C)Nc1ccnc(/C=C/c2ccc(Cl)cc2)c1 (stereo not given)
OUT: inactive

IN: Proceed to Cc1cc2c(c(O)c1-c1c(C)cc(O)c3c1C(=O)C=CC3=O)C(=O)C=CC2=O
OUT: active

---
IN: Recorded test outcome, item Oc1cc(Cl)ncn1
OUT: inactive

IN: Proceed to CC(=O)C(=[N+]=[N-])C(=O)N1CCOC1=O
OUT: inactive

IN: Proceed to CC1=CC(=O)N2[C@H](OC[C@@H]2C(C)C)O1
OUT: inactive

IN: Proceed to COc1ccc(-c2c(C3=NCCN3)nnn2-c2ccccc2)cc1
OUT: inactive

IN: Proceed to Cc1cnc2c(c1)C(=O)C1=C(OC(C)(C)CC1O)C2=O (stereo not given)
OUT: inactive

----------
# System: DMS-114
# ASSAY DETAILS: NCI tumour cell line growth inhibition, 48 h
Activity calls are given as the source filed them. No stated cut-off is given here; in the data, active = GI50 up to about 1.1 µM and inactive = higher.
Pick one: TRUE = active, FALSE = inactive

IN: Recorded test outcome, item Nc1ncnc2c1ncn2CC(O)C(=O)O (stereo not drawn)
OUT: FALSE

---
IN: Recorded test outcome, item Cc1c(C(=O)CC(=O)C(=O)NC2C3CC4CC(C3)CC2C4)[n+]([O-])c2ccccc2[n+]1[O-] (stereo not drawn)
OUT: FALSE

----------
# System: UO-31
# ASSAY DETAILS: NCI tumour cell line growth inhibition, 48 h
Active and inactive are the calls of the source. Cut-off read from the data, not from the text of the source: active = GI50 up to about 1.1 µM and inactive = higher.
Pick one: active, inactive

IN: Recorded test outcome, item COC(=O)c1c2c(cc3c1CC1(Cc4cc5c(cc4C1)CCCC5)C3)CCCC2
OUT: inactive

IN: Proceed to NC(=O)c1cn(C2OC(CO)C(O)C2O)c2ncnc(N)c12 (stereo unspecified)
OUT: active

IN: Proceed to O=c1[nH]nc(Cc2ccc(Cl)cc2)n1O
OUT: inactive

IN: Proceed to COc1ccc(-c2nc(N)n(C)c2SSc2c(-c3ccc(OC)cc3)nc(N)n2C)cc1
OUT: inactive

IN: Proceed to CC(C)CCS(=O)(=O)OCCCCOS(=O)(=O)CCC(C)C
OUT: inactive

---
IN: Recorded test outcome, item Cc1ccc(S(=O)(=O)Nn2c(C)cc3ccc(S(=O)(=O)Nc4ccccc4[N+](=O)[O-])cc3c2=O)cc1
OUT: inactive

----------
# System: OVCAR-3
# ASSAY DETAILS: NCI tumour cell line growth inhibition, 48 h
Activity calls are given as the source filed them. Cut-off read from the data, not from the text of the source: active = GI50 up to about 1.1 µM and inactive = higher. Square brackets hold non-standard residues; d marks the D form. Peptide text beside a SMILES is read from it. * marks the point of attachment. X26 = COC1=CC(=O)N(C(=O)[C@@H](O*)C(C)C)[C@H]1Cc1ccccc1; NMeL = CN[C@@H](CC(C)C)C(=O)O; Hexanoyl = CCCCCC(=O)*
ATTRIBUTE MEASURED: GI50

IN: Give GI50 (OVCAR-3) of the following compound: CC(=O)Nc1ncc2c(n1)-c1ccccc1OC2c1ccccc1 (centres undefined)
OUT: > 100 µM (inactive)

IN: Proceed to Nc1c(-c2ccc(Br)cc2)[n+]([O-])c2ccccc2[n+]1[O-]
OUT: 92 µM (inactive)

IN: Proceed to O=c1c(Nc2ccccc2)cn(CCOc2ccccc2)c(=O)n1CCOc1ccccc1
OUT: 35.9 µM (inactive)

For every listed record, write down its GI50.
1. COC(=O)C1CCC(=O)N1CN(C(C)=O)c1ccccc1 (centres undefined)
2. CN(C)c1ccc(C2CC(c3ccc4ccccc4c3O)=NN2c2ccc([N+](=O)[O-])cc2[N+](=O)[O-])cc1 (centres undefined)
3. CCCCCC(=O)N[C@H](C(=O)N[C@H](C(=O)N(C)[C@@H](CC(C)C)C(=O)N1CCC[C@H]1C(=O)N1CCC[C@H]1C(=O)O[C@H](C(=O)N1C(=O)C=C(OC)[C@@H]1Cc1ccccc1)C(C)C)C(C)C)C(C)C (Hexanoyl-VV[NMeL]PP-X26)
4. Nc1cc(N)cc(Cc2ccccc2)c1
5. Nc1nc(Cl)c(N)c(NCC2(CO)CC(O)C2)n1 (centres undefined)
6. CC(=O)C(=[N+]=[N-])C(=O)N1CCOC1=O

OUT:
1: > 100 µM (inactive); 2: 22 µM (inactive); 3: > 100 µM (inactive); 4: > 100 µM (inactive); 5: > 100 µM (inactive); 6: > 10 µM (inactive)
